Cited source for all entries: patent US6906078B2

biological target: (H+/K+)-ATPase (Canis lupus familiaris, UniProt P50996); construct: The microsomes retained at the 15%-30% sucrose interface, after centrifugation at 250,000×g for sixty minutes, were used as the source of (H^+/K^+)-ATPase; from tissue; host or cells: gastric glandular mucosa of mongrel dogs (microsomal fraction, lyophilized); assay: Inhibition of (H+/K+)-ATPase from canine gastric mucosa (inorganic phosphate release); format: biochemical
Sequence (P50996 whole entry): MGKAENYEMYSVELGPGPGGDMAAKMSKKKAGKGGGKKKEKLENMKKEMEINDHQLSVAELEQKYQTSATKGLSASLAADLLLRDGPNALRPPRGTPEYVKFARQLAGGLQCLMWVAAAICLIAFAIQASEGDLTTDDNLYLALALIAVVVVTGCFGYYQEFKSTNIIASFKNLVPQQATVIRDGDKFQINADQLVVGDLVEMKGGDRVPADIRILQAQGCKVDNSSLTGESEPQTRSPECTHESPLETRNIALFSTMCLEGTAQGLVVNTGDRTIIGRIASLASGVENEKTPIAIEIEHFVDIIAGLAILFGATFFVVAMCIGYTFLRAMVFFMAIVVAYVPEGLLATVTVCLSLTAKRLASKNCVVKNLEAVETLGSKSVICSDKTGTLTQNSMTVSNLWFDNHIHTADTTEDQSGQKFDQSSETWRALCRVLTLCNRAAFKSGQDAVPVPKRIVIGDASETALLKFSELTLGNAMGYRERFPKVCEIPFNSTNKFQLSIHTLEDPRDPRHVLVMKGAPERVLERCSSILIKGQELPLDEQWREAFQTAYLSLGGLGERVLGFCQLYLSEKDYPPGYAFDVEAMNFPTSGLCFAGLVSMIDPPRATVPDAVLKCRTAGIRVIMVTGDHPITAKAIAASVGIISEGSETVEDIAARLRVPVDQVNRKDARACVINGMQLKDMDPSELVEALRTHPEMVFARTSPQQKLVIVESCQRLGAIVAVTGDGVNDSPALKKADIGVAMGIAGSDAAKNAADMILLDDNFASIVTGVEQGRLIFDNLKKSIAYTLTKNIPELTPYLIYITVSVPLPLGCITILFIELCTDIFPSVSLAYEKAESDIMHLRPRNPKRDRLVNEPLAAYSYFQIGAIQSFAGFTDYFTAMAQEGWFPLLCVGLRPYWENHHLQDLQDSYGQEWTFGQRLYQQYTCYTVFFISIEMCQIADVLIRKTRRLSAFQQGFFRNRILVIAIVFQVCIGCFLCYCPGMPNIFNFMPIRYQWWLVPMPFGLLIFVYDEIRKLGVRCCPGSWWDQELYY
Sequence (P33704 whole entry partner): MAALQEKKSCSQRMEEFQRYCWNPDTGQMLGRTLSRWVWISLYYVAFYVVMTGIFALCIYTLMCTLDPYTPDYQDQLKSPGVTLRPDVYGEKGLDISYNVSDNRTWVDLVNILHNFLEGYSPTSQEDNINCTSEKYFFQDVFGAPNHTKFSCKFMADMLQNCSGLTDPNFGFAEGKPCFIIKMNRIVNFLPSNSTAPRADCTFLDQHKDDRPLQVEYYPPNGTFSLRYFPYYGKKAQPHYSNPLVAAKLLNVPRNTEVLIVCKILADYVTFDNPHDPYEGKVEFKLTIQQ
Measured Endpoint: IC50 (µM)
Please respond with the number in µM and leave the unit unwritten.

[in] For the compound CN(C)c1ncccc1C[S+]([O-])c1nc2ccccc2[nH]1 (stereo not shown) [Example 83, hydrate] , what IC50 is on record?
[out] 8.6
